test system: pERK in NCI-H358 cells; assay: Cell-based pERK HTRF assay (pERK inhibition in H358 cells); conditions: pERK inhibition IC50, NCI-H358 cells, 30 min incubation; read-out: PERK in H358 cell
pIC50: −log10 of the molar value.
Please provide measured pIC50 for the entries that follow.

If you can, please state the reported pIC50 value of C=CC(=O)N1C[C@H](C)N(c2nc(OC[C@@]34CCCN3C[C@H](F)C4)nc3c(F)c(-c4ccc(F)c5sc(N)c(C#N)c45)c(C(F)(F)F)cc23)C[C@H]1C (single isomer, unassigned) .
6.00 to 7.00

Value lookup for pIC50; key = C=CC(=O)N1C[C@H](C)N(c2nc(OC[C@@]34CCCN3C[C@H](F)C4)nc3c(F)c(-c4ccc(F)c5sc(N)nc45)c(C(F)(F)F)cc23)C[C@H]1C (atropisomer, axis not shown) [Compound 267]
> 7.00

Reported pIC50, compound C=CC(=O)N1CC[C@@H](N(C)c2nc(OC[C@@]34CCCN3C[C@H](F)C4)nc3c(F)c(-c4ccc(F)c5sc(N)c(C#N)c45)c(C(F)(F)F)cc23)[C@H]1C (single isomer, unassigned) [Compound 434] : ____
> 7.00

// lookup pIC50 for C=CC(=O)N1CC[C@@H](Nc2nc(OC[C@@]34CCCN3C[C@H](F)C4)nc3c(F)c(-c4ccc(F)c5sc(N)nc45)c(C(F)(F)F)cc23)C1 (single isomer, unassigned) [Compound 271]
> 7.00

Need pIC50, item C=CC(=O)N1CC[C@@H](Nc2nc(OC[C@@]34CCCN3C[C@H](F)C4)nc3c(F)c(-c4ccc(F)c5sc(N)nc45)c(C(F)(F)F)cc23)C1 (single isomer, unassigned) [Compound 272]
< 6.00
